pIC50 listing for selected compounds.
System: V79
ASSAY NOTES: Cytotoxicity against V-79 cells
Assay type: functional, cell-based
EXPERIMENTAL CONTEXT: Cricetulus griseus
pIC50: −log10 of the molar value.

COMPOUND | OPERATOR SYMBOL | pIC50
CCOc1ccc2ccc(=O)oc2c1CCC(C)C | = | 5.24
COc1ccc2ccc(=O)oc2c1CC1OC1(C)C (configuration not stated) | < | 4.00
CC(C)CCc1c(O)ccc2ccc(=O)oc12 | = | 4.40
COc1ccc2ccc(=O)oc2c1CC(Br)C(C)(C)Br (configuration not stated) | = | 4.22
CCCC(=O)c1ccc2ccc(=O)oc2c1CCC(C)C | = | 4.24
COc1ccc2ccc(=O)oc2c1 [HERNIARIN] | < | 4.00
CC(C)CCc1c(O)ccc2c1OC(=O)CC2 | < | 4.00
COc1ccc2ccc(=O)oc2c1CCC(C)(C)O | < | 4.00
CCCCCCCOc1ccc2ccc(=O)oc2c1CCC(C)C | = | 4.77
COc1ccc2ccc(=O)oc2c1CC=C(C)C [OSTHOLE] | = | 4.24
COc1ccc2c(c1CCC(C)C)OC(=O)CC2 | < | 4.00
CC(=O)c1ccc2ccc(=O)oc2c1CCC(C)C | = | 4.22

Every entry's value here was drawn from ChEMBL document CHEMBL1129131.
